test system: KB-3-1; experiment: Cytotoxic Profiling of Annotated Libraries Using Quantitative High-Throughput Screening (AID 1296008); settings: Five cell lines viability, CellTiter-Glo ATP luminescence, 48-72 h; stronger effect = lower value; note: % is set by controls: 0 for no effect and ±100 for the full control effect
Results filed as inconclusive are left out.
This section presents molecules with their documented max response values.
measure: max response (%)

1. CC(=O)OCC1=C(C(=O)O)N2C(=O)[C@@H](NC(=O)Cc3cccs3)[C@H]2SC1 : 1.19
2. NC/C=C/C(=O)O : 3.52
3. Cc1ccc(=O)n(-c2ccccc2)c1 : 4.11
4. CCN(CC)CC(=O)Nc1c(C)cccc1C : -0.324
5. Cc1ccc(/C(=C\CN2CCCC2)c2ccccn2)cc1 : 18.1
6. C[C@]12CC[C@@H]3c4ccc(O)cc4C[C@@H](CCCCCCCCCS(=O)CCCC(F)(F)C(F)(F)F)[C@H]3[C@@H]1CC[C@@H]2O (stereo partly specified) : 3.54
7. NC(=O)c1ncn([C@@H]2O[C@H](CO)[C@@H](O)[C@H]2O)c1O : 8.08
8. CC1=C(C)C(=O)C(CCCCC#CCCCC#CCO)=C(C)C1=O : -7.44
9. CCOC(=O)C1=C(C)NC(C)=C(C(=O)OC)C1c1cccc(Cl)c1Cl (stereo unspecified) : -8.74
10. NC1=NCC2c3ccccc3Cc3ccccc3N12 (stereo unspecified) : -4.43
11. CCCCCN(CCCCC)C(=O)C(CCC(=O)O)NC(=O)c1ccc(Cl)c(Cl)c1 (stereo unspecified) : -8.56
